- TEST_TARGET: Misshapen-like kinase 1 (Homo sapiens) (UniProt Q8N4C8)
- Sequence (Q8N4C8 whole entry, looked up): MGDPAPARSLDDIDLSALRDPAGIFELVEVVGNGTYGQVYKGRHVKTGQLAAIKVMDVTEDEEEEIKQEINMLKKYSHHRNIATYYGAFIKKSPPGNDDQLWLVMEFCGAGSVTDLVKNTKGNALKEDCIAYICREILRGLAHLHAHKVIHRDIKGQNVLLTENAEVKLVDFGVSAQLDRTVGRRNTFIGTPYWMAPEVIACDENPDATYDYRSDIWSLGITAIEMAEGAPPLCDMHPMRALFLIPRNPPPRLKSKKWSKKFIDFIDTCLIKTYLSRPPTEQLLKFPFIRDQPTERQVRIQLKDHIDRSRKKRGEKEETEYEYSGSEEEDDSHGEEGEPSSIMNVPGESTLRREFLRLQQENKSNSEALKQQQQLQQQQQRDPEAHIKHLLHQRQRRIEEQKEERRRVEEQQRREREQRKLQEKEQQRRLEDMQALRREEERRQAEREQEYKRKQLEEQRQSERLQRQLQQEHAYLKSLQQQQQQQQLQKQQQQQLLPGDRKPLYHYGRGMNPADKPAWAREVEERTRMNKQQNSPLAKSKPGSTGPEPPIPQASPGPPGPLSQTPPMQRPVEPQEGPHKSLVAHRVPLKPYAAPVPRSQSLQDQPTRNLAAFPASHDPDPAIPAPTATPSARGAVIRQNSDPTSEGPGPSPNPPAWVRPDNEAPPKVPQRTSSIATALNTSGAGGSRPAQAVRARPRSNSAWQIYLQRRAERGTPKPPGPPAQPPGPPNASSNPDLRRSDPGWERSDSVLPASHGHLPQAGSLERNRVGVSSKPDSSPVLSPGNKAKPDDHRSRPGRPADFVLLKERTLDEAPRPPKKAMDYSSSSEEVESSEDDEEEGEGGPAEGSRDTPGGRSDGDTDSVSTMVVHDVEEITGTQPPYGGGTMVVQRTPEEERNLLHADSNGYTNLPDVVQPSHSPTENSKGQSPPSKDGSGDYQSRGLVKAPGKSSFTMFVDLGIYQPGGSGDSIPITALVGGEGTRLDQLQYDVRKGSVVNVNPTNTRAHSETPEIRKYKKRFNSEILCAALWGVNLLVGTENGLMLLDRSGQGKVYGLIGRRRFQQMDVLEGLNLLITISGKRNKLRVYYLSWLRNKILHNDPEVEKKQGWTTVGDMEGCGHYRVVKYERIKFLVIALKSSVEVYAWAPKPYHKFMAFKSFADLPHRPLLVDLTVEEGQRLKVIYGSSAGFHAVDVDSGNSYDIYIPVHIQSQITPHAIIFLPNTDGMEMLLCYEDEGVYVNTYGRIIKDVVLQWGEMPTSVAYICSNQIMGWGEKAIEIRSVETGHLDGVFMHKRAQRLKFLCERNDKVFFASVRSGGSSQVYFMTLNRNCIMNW
- EXPERIMENTAL_CONDITIONS: at 1 µM
- Description: GSK_PKIS: MINK mean inhibition at 1 uM [Nanosyn]

MOLECULE: NS(=O)(=O)c1ccc(N/N=C2\C(=O)Nc3ccc(C(=O)NCCCn4ccnc4)cc32)cc1
inhibition: 41.5%
//
MOLECULE: O=C(NCC1CC1)c1ccc(-c2cccc(C(=O)NC3CC3)c2)cc1
inhibition: -1.8%
//
MOLECULE: Fc1ccc(-c2nc3n(c2-c2ccncc2)CCS3)cc1
inhibition: 14%
//
MOLECULE: CCc1ccc(Oc2nccc(-c3c(-c4ccc(F)cc4)ncn3C3CCNCC3)n2)cc1
inhibition: 12.1%
//
MOLECULE: O=C(Nc1n[nH]c2nc(-c3ccc(O)cc3)c(Br)cc12)C1CC1
inhibition: 67.7%
//
MOLECULE: COc1cc2ncn(-c3cc(OCc4cccs4)c(C(N)=O)s3)c2cc1OC
inhibition: 63.5%
//
MOLECULE: C[C@@H](Oc1cc(-n2cnc3ccc(OC4CCN(C)CC4)cc32)sc1C(N)=O)c1ccccc1Cl
inhibition: 5.92%
//
MOLECULE: NCc1ccc(-n2c(-c3nonc3N)nc3cnccc32)cc1
inhibition: 16.3%
//
MOLECULE: Cc1ccc(C(=O)NC2CCC2)cc1-c1ccc(C(=O)NCC2CC2)cc1
inhibition: 4.67%
//
MOLECULE: CNC(=O)c1cncc(/C=C/c2c(C)cccc2C)c1
inhibition: 3.59%
//
MOLECULE: O=C(Nc1ccc(Oc2ccc3[nH]c(NC(=O)c4ccccc4)nc3c2)cc1)Nc1cc(C(F)(F)F)ccc1F
inhibition: 4.54%
//
MOLECULE: Fc1ccc(-c2c(-c3ccncc3)nc3n2CCS3)cc1
inhibition: 9.56%
//
MOLECULE: Cc1nnc(-c2ccc(C)c(-c3ccc(C(=O)NCc4ccc(Cl)cc4)cc3)c2)o1
inhibition: 5.04%
//
MOLECULE: Clc1ccc(CNc2nccc(-c3cnn4ncccc34)n2)cc1
inhibition: 10.7%
//
MOLECULE: COc1ccc2cc(-c3c(-c4ccncc4)nc(-c4ccc([S+](C)[O-])cc4C)n3C)ccc2c1 (stereo not drawn)
inhibition: 12.5%
//
MOLECULE: COc1ccc(-c2ccc3c(NC(=O)C4CC4)n[nH]c3n2)cc1
inhibition: 21.8%
//
MOLECULE: Cc1ccc(NC(=O)c2ccoc2)cc1-c1ccc(C(=O)NCC2CC2)cc1
inhibition: 1.4%
//
MOLECULE: COc1ccc(C2=C(N3CCc4ccccc43)C(=O)NC2=O)cc1
inhibition: 11%
//
MOLECULE: Fc1ccc(-c2ncn(C3CCNCC3)c2-c2ccnc(Oc3ccc(Oc4ccccc4)cc3)n2)cc1
inhibition: 9.38%
//
MOLECULE: COc1ccc2cc(-c3c(-c4ccncc4)nc(-c4ccc(S(C)(=O)=O)cc4C)n3C)ccc2c1
inhibition: 13.9%
//
MOLECULE: Cc1ccc(C(=O)NC(C)C)cc1-c1ccc(C(=O)NCC2CC2)cc1
inhibition: -1.09%
//
MOLECULE: FC(F)(F)c1cccc(Nc2nccc(-c3cnn4nc(-c5ccccc5)ccc34)n2)c1
inhibition: 3.06%
//
MOLECULE: NC(=O)c1cc(-c2ccncc2)cc(-c2ccccc2)c1N
inhibition: 26.1%
//
MOLECULE: O=C1Nc2ccc(I)cc2C1=Cc1cc(Br)c(O)c(Br)c1
inhibition: 73.2%
//
MOLECULE: O=C(Nc1n[nH]c2cc(-c3ccccc3)ccc12)C1CC1
inhibition: 64.5%
//
MOLECULE: CCC(=O)Nc1ccc(C)c(-c2ccc(C(=O)NCC3CC3)cc2)c1
inhibition: 5.64%
//
MOLECULE: Nc1nccc(-c2c(-c3ccc(F)cc3)ncn2C2CCC(O)CC2)n1 (stereo not drawn)
inhibition: 62.4%
//
MOLECULE: COc1cc(Nc2ncc3c(C)nc(-c4cccc(C(F)(F)F)c4)n3n2)cc(OC)c1OC
inhibition: 29.2%
//
MOLECULE: NC(=O)Cc1ccccc1Oc1nccc(-c2c(-c3ccc(F)cc3)ncn2C2CCNCC2)n1
inhibition: 6.95%
//
MOLECULE: COc1cccc(-n2cnc3c(N/N=C/c4ccncc4)ncnc32)c1
inhibition: 16.9%
//
MOLECULE: COc1ccc2ncn(-c3cc(O[C@H](C)c4ccccc4Cl)c(C(N)=O)s3)c2c1
inhibition: 5.42%
//
MOLECULE: CCS(=O)(=O)c1ccc(OC)c(Nc2ncc(-c3ccccc3Cl)o2)c1
inhibition: 22.4%
//
MOLECULE: COc1cc(Nc2ncc(-c3ccccc3)o2)cc(OC)c1OC
inhibition: 17.3%
//
MOLECULE: O=C(Nc1n[nH]c2cc(-c3cc(F)ccc3F)ccc12)C1CC1
inhibition: 45.7%
//
MOLECULE: O=C1NC(=O)C(c2cccc(Cl)c2)=C1Nc1ccc(Cl)c(C(=O)O)c1
inhibition: 7.9%
//
MOLECULE: NS(=O)(=O)c1ccc(Nc2cc(-c3ccc(O)c(F)c3)n[nH]2)cc1
inhibition: 65.7%
//
MOLECULE: O=C(Nc1n[nH]c2nc(-c3ccco3)ccc12)C1CC1
inhibition: 18.1%
//
MOLECULE: CCN(CC)Cc1ccc(Nc2nccc(-c3cnn4ncccc34)n2)cc1
inhibition: 17%
